- System: 5-LO (5-lipoxygenase) (Homo sapiens)
- Construct: made in house; host or cells: insect cells (lysate, 7 μg)
- Sequence (P09917 1-674): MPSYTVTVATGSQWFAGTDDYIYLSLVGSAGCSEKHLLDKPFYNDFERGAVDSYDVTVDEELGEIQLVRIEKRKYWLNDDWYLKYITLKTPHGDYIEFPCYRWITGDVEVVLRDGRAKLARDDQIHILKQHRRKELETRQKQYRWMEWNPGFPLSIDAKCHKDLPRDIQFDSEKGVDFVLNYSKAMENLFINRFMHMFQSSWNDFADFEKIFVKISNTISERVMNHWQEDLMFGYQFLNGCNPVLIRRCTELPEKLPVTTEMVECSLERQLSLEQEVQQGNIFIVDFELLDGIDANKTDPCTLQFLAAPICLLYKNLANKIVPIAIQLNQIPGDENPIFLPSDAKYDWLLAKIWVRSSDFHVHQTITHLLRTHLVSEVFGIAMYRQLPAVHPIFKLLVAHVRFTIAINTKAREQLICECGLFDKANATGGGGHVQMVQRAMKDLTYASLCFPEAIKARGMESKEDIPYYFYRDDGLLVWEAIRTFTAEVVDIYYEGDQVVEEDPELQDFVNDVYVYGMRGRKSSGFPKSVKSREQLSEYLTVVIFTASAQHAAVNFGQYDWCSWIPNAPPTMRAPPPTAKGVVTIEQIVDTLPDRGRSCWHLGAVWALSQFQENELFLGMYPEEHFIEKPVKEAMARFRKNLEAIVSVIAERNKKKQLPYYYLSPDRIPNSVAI
- Assay comment: 5-LO enzyme assay using a FOX reagent
- Type: biochemical
- Experimental context: read-out: 5-LO (% inhibition at 1 μM); test sample 1 μM; lysates from 5-LO expressing insect cells; table does not say FOX or 234 nm readout
Metric name: inhibition at 1 µM (%)

CC(c1cc2ccccc2s1)N(O)C(N)=O (centres unmarked) [Zileuton, reference compound]; 85

(a) COc1ccc(CNc2ccc3c(c2)C=CC(C)(CCc2ccccc2)O3)cc1 (centres unmarked)
(b) COc1ccc(CNc2cc3c(cc2C)OC(C)(CCc2ccccc2)C=C3)cc1 (centres unmarked)
# input Could you tell me which of a and b has the lower inhibition at 1 µM reading? Refer to your chosen entry by its label in the reply.
# output b
